Biological target: T1, Cynomolgus macaques TSLP recombinant protein (Cynomolgus macaques, UniProt Q969D9 29-159 (human entry), limits assumed, biotinylated in the blocking assays (sites not given))
T1 construct: also called cyTSLP; biotinylated Cynomolgus macaques TSLP protein
T1 chain: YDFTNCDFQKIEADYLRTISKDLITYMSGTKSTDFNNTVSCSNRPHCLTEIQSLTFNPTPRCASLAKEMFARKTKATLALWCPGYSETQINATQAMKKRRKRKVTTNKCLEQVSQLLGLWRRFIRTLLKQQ
Experiment: ELISA on coated cynomolgus TSLP;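 further: Read-out was TMB colorimetric signal measured as absorbance at 450 nm after 10 min development at 37 °C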
experimental.endpoint: pEC50
Here pEC50 is given on a logarithmic scale as minus log10 of the concentration in mol/L.

IN: For the binder shown here, Ab27 (antibody, V domains shown, Humanized; also called h39G5VHv11/h71G4VKv1) VH: QVQLVQSGAEVKKPGSSVKVSCKASGYTFTDYWMHWVRQAPGQGLEWMGTIDNSDSDTSLNQKFQGRVTITADTSTSTAYMELSSLRSEDTAVYYCARSLDGYYDYWGQGTLVTVSS VL: DIQMTQSPSSLSASVGDRVTITCRTSENIYSYLAWYQQKPGKAPKLLIYFAKTLTDGVPSRFSGSGSGTDFTLTISSLQPEDFATYYCQHHYGTPWTFGQGTKVEIK , give the reported pEC50.
OUT: 8.37

IN: Moving on to the next binder: Ab24 (antibody, V domains shown, Humanized; also called h39G5VHv5/h71G4VKv1; h39G5VHv5/h71G4VKv1 hIgG1) VH: QVQLVQSGAEVKKPGSSVKVSCKASGYTFTDYWMHWVRQAPGQGLEWMGIIDPSDSDTSLNQKFQGRVTLTVDTSTSTAYMELSSLRSEDTAVYYCARSLDGYYDYWGQGTLVTVSS VL: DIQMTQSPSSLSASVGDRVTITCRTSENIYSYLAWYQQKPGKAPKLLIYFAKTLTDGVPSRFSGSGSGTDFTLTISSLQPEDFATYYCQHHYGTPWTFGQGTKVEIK
OUT: 8.86

IN: Moving on to the next binder: Ab23 (antibody, V domains shown, Humanized; also called h39G5VHv2/h71G4VKv1; h39G5VHv2/h71G4VKv1 hIgG1) VH: QVQLVQSGAEVKKPGSSVKVSCKASGYSFISYWIHWVRQAPGQGLEWMGIIDPSDSDTSLNQKFQGRVTITADESTSTAYMELSSLRSEDTAVYYCARSLDGYYDYWGQGTLVTVSS VL: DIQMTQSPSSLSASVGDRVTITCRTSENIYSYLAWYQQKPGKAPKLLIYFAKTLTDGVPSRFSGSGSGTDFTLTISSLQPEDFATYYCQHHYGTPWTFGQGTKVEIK
OUT: 9.08
